Test method notes: Plasma exposure on food admix (HPLC-MS/MS) and spleen p10
Format: in vivo, MRL-(Fas)lpr mice
Condition description: mouse, plasma, oral; food admix 262 mg/kg of food, exposure dose 30 mg/kg, over 8 weeks, female MRL-(Fas)lpr mice; read-out: stable plasma levels
Protocol: Four-week-old female MRL-(Fas)lpr mice were purchased from Harlan Winkelmann (Borchen, Germany) and kept under pathogen-free conditions in a 12 hour light and dark cycle with free access to food and water. […] Plasma samples were collected from mice during the feeding cycle on weeks 2, 4, 6 and 8 on a variable schedule of individuals after initiation of feeding with the drug-food admix on week 1. The levels in food were calculated to achieve doses of 3, 10 and 30 mg/kg/day. […]
Measurement label: concentration at 8 weeks

QUERY: Look up concentration at 8 weeks of Cn1cc(-c2ccc(S(=O)(=O)[C@@H]3C[C@@H](C(=O)NC4(C#N)CC4)N(C(=O)C4(C(F)(F)F)CC4)C3)c(C(F)(F)F)c2)cn1 [RO5459072] and report it.
RESULT: 400 to 600 ng/mL
